# Assay notes: AP1 Signaling Pathway (AID 357);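 note: ME-180 reporter cells stimulated with EGF at its EC50 level; % is set by controls: 0 for no effect and ±100 for the full control effect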
# Particulars: ME-180 (cervical carcinoma) AP-1-bla reporter, EGF-induced, beta-lactamase ratio, 5 h; at 17.2 µM (top of the series) unless noted
Inconclusive results are not listed.
Property name: activity change, negative = inhibition (%)
Report as a plain number; the unit % is understood.

Q) What activity change, negative = inhibition value was documented for this compound, c1coc(-c2nnc3sc(-c4cccs4)nn23)c1 ?
A) -11.6

Q) What activity change, negative = inhibition value was documented for this compound, CCOC(=O)C1=C(C)N=C2SC(C)C(=O)N2C1c1ccc(OC(C)=O)c(OC)c1 (centres undefined) ?
A) -14.1

Q) What activity change, negative = inhibition value was documented for this compound, COn1c(=S)[nH]c2ccccc2c1=O ?
A) 20.1

Q) What activity change, negative = inhibition value was documented for this compound, CCCCC(CCC(=O)Nc1ccc(C(=O)OCC)cc1)C(=O)O (centres undefined) ?
A) -10.4

Q) What activity change, negative = inhibition value was documented for this compound, CCOc1nc(SCCOc2ccc(C)cc2)nc(N(C)C)n1 ?
A) -8.15

Q) What activity change, negative = inhibition value was documented for this compound, CCCc1cc(Nc2c(C)n(C)n(-c3ccccc3)c2=O)n2c(nc3ccccc32)c1C#N ?
A) -3.24

Q) What activity change, negative = inhibition value was documented for this compound, Cc1c(C)c2cc(Cl)c(O)c(CN3CCCC(C)C3)c2oc1=O (centres undefined) ?
A) 14.1

Q) What activity change, negative = inhibition value was documented for this compound, CN=c1sc2ccccc2n1CC(O)COCc1ccco1 (centres undefined) ?
A) -8.62

Q) What activity change, negative = inhibition value was documented for this compound, CSc1nc(C)c2c(c1C#N)CCCC2 ?
A) -16.1
